Target: T1, Human CD27 ECD truncated (ECD 1-121, cleavage site, His6) (human)
T1 construct: also called human CD27 ECD with His Tag; CD27-His
T1 chain: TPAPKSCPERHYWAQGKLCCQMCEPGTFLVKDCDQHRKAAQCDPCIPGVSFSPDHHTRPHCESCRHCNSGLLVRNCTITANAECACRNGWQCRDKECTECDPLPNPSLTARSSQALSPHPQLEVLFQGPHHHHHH
Experiment: ELISA signal for binding to CD27, initial small culture supernatants
Assignment: determine reported ELISA signal for the given binders.
Give bare numbers.

Some solved entries appear below for comparison.
M526 (antibody, IgG1, V domains shown, also called H222/L249) VH: QVQLVESGGGLVKPGGSLRLSCAASGFTFSSYGMSWIRQAPGKGLEWVSYIDRGGGVTIYPDSVKGRFTISRDNAKNSLYLQMNSLRAEDTAVYYCARHRGNPFDYWGQGTLVTVSS VL: DIQMTQSPSSLSASVGDRVTITCRASKSVSEGRWSFMHWYQQKPGKAPKLLIYVASRLESGVPSRFSGSGSGTDFTFTISSLQPEDIATYYCQHSRELPWTFGQGTKVEIK = 0.69
M492 (antibody, IgG1, V domains shown, also called H228/L249) VH: QVQLVESGGGLVKPGGSLRLSCAASGFTFSSYSMSWIRQAPGKGLEWVSYIDAGGGFTIYPDSVKGRFTISRDNAKNSLYLQMNSLRAEDTAVYYCARHRGNPFDYWGQGTLVTVSS VL: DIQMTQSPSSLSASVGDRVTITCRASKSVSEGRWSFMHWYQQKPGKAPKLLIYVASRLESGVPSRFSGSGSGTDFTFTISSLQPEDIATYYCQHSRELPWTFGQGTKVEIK = 0.77
M489 (antibody, IgG1, V domains shown, also called H227/L250) VH: QVQLVESGGGLVKPGGSLRLSCAASGFTFSSYGMSWIRQAPGKGLEWVSYIDEGGGQTIYPDSVKGRFTISRDNAKNSLYLQMNSLRAEDTAVYYCARHRGNPFDYWGQGTLVTVSS VL: DIQMTQSPSSLSASVGDRVTITCRASKSVSLDRWSFMHWYQQKPGKAPKLLIYLASNLESGVPSRFSGSGSGTDFTFTISSLQPEDIATYYCQHSRELPWTFGQGTKVEIK = 0.96
M488 (antibody, IgG1, V domains shown, also called H227/L249) VH: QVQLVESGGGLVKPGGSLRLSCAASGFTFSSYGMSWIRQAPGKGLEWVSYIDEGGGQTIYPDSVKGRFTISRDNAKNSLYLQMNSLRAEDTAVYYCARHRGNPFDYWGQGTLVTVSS VL: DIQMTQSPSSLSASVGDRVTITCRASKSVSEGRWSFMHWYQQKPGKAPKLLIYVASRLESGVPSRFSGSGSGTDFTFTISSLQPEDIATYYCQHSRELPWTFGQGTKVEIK = 0.92

Alright, here's another binder for you.
Task: Query (binder): M493 (antibody, IgG1, V domains shown, also called H228/L250) VH: QVQLVESGGGLVKPGGSLRLSCAASGFTFSSYSMSWIRQAPGKGLEWVSYIDAGGGFTIYPDSVKGRFTISRDNAKNSLYLQMNSLRAEDTAVYYCARHRGNPFDYWGQGTLVTVSS VL: DIQMTQSPSSLSASVGDRVTITCRASKSVSLDRWSFMHWYQQKPGKAPKLLIYLASNLESGVPSRFSGSGSGTDFTFTISSLQPEDIATYYCQHSRELPWTFGQGTKVEIK ; field requested: ELISA signal
Output: 0.85
